Value source: patent US11040963B2

biological target: HA H1 A/California/07/09 (Influenza A virus (A/California/07/2009(H1N1)), UniProt C3W5X2); test: biochemical; conditions: Competition binding (AlphaLISA), pIC50 H1 A/California/07/09
// returns condition not met unless IC50 is strictly below 200 nM, in which case condition met

Please determine if COc1nnc(C(c2ccccc2)N2CCN(C(=O)c3cc(-c4nc5cc(OC(F)(F)F)ccc5o4)ccn3)CC2)o1 (stereo not drawn) is below 200 nM in terms of IC50.
condition met

Answer whether the compound COc1ccc2oc(-c3cccc(C(=O)N4CCN(C(c5ccccc5)c5nnc(C)o5)CC4)c3)nc2c1 (stereo not drawn) has IC50 strictly less than 200 nM
condition met

Hello, is IC50 of the following compound strictly smaller than 200 nM? Cc1nnc([C@@H](c2ccccc2)N2CCN(C(=O)c3cc(-c4nc5cc(C(F)(F)F)ccc5o4)ccn3)CC2)o1
condition met

Consider COc1ccc2nc(-c3cccc(C(=O)N4CCN(C(C(C)=O)c5ccccc5)CC4)c3)sc2c1 (stereo not drawn) [Example 90] . Does its IC50 lie strictly below 200 nM?
condition not met

Could you please tell me whether IC50 recorded for [2H]C([2H])([2H])c1nnc(C(c2ccccc2)N2CCN(C(=O)c3cccc(-c4nc5cc(C(F)(F)F)ccc5o4)c3)CC2)o1 (stereo not drawn) is less than 200 nM?
condition met

Identify whether the compound COc1ccc2oc(-c3ccnc(C(=O)N4CCN(C(c5ccccc5)c5nnc(C)o5)CC4)c3)nc2c1 (stereo not drawn) records IC50 below 200 nM.
condition met

Does this compound meet the criterion IC50 < 200 nM? COC(=O)[C@@H](c1ccccc1)N1CCN(C(=O)c2cccc(-c3nc4cc(C(F)(F)F)ccc4o3)c2)[C@H](CC(N)=O)C1
condition met

Does this compound meet the criterion IC50 < 200 nM? Cc1nnc(C(c2ccccc2)N2CCN(C(=O)c3cccc(-c4nc5cc(O)ccc5o4)c3)CC2)o1 (stereo not drawn)
condition met

Is IC50 strictly under 200 nM for the entry COC(=O)[C@@H](c1ccccc1)C1CCN(C(=O)c2cccc(-c3nc4ccc(OC)cc4s3)c2)CC1 ?
condition met

Find out if reported IC50 for Cc1cnc(C(c2ccccc2)N2CCN(C(=O)c3cc(-c4nc5cc(OC(F)(F)F)ccc5o4)ccn3)CC2)o1 (stereo not drawn) is less than 200 nM
condition met

Would you kindly verify if IC50 of COC(=O)C(c1ccccc1)N1CCN(C(=O)c2cccc(-c3nc4ccccc4o3)c2)CC1 (stereo not drawn) is strictly less than 200 nM?
condition met

Regarding Cc1nnc(C(c2ccccc2)N2CCN(C(=O)c3cc(-c4nc5ccccc5s4)ccc3F)CC2)o1 (stereo not drawn) , kindly confirm whether its IC50 is beneath 200 nM.
condition not met

I wonder whether COc1ccc2nc(-c3cccc(C(=O)N4CCN(C5(c6ccccc6)CCN(C)C5=O)CC4)c3)sc2c1 (stereo not drawn) has IC50 below 200 nM. Can you tell?
condition not met

Item Cc1nnc([C@@H](c2ccccc2)N2CCN(C(=O)c3cc(F)cc(-c4nc5cc(C(F)(F)F)ccc5o4)c3)CC2)o1 : IC50 beneath 200 nM, strictly?
condition met
